# key: entry, value: Relative activity (residual TDH activity)
test system: Purified TDH derived from Cupriavidus necator NBRC 102504; experiment: Effect of metal ions and inhibitors on TDH activity (residual activity); assay type: biochemical; settings: metal ions final concentration 1 mM, 30° C. for 1 hour; relative to enzyme without additives
reported endpoint: Relative activity (residual TDH activity) (%)

- input smiles: "O=S(=O)([O-])[O-].[Mg+2]"
  reported: 112
- input smiles: "[Cl][Fe][Cl]"
  reported: 68
- input smiles: "[Cl][Cr]([Cl])[Cl]"
  reported: 110
- input smiles: "[Ba+2].[Cl-].[Cl-]"
  reported: 113
- input smiles: "[Cl][Ni][Cl]"
  reported: 119
- input smiles: "[Cl][Mn][Cl]"
  reported: 102
- input smiles: "O=S(=O)([O-])[O-].[Mn+2]"
  reported: 114

Where these numbers come from: patent US8785147B2
